# experiment_summary: Oral bioavailability in Sprague-Dawley rat
# Assay type: ADME, organism-based
# cond: in vivo
readout: bioavailability (%)
Write it as a number; the unit % goes unstated.

Please look at this compound and report its bioavailability: C[C@@H]1CN(c2ncc(C(O)CO)cc2Cl)CCN1c1nc2c(-c3cc(F)c(F)c(F)c3)cc(C(F)(F)F)cc2[nH]1 (mixture of isomers) 17

* * *

# experiment_summary: Elimination half life in Sprague-Dawley rat at 1 mg/kg, iv
# Type: ADME, organism-based
# Set-up: dose 1 mg/kg, route intravenous
# cond: in vivo
readout: half-life (min)
Write it as a number; the unit min goes unstated.

Please look at this molecule and report its half-life: C[C@@H]1CN(c2ncc(C(O)CO)cc2Cl)CCN1c1nc2c(-c3cc(F)c(F)c(F)c3)cc(C(F)(F)F)cc2[nH]1 (mixture of isomers) 336

* * *

# assayed_target: Transient receptor potential cation channel subfamily V member 1 (Rattus norvegicus)
# experiment_summary: Antagonist activity against acid-induced 45calcium ion uptake in CHO cells expressing rat TRPV1 at pH5
# Assay type: functional, cell-based
pIC50: −log10 of the molar value.
// bucketize pIC50: lowest: < 7; middle: ≥ 7 and < 8; highest: ≥ 8

Dear colleague, I would appreciate it if you could identify the bin for C[C@@H]1CN(c2ncc(C(O)c3ccccc3)cc2C(F)(F)F)CCN1c1nc2c(-c3cc(F)c(F)c(F)c3)cc(C(F)(F)F)cc2[nH]1 (some centres not stated) and reply at your convenience. highest

Dear colleague, I would appreciate it if you could identify the bin for C[C@@H]1CN(c2ncccc2C(F)(F)F)CCN1c1nc2ccc(C(F)(F)F)cc2[nH]1 and reply at your convenience. middle

Dear colleague, I would appreciate it if you could identify the bin for FC(F)(F)c1ccc2[nH]c(N3CCN(c4cccc(C(F)(F)F)n4)CC3)nc2c1 and reply at your convenience. lowest

Dear colleague, I would appreciate it if you could identify the bin for CNC(=O)c1cnc(N2CCN(c3nc4ccc(C(F)(F)F)cc4[nH]3)CC2)c(Cl)c1 and reply at your convenience. lowest

Dear colleague, I would appreciate it if you could identify the bin for C[C@@H]1CN(c2ncc(CO)cc2C(F)(F)F)CCN1c1nc2c(-c3cc(F)c(F)c(F)c3)cc(C(F)(F)F)cc2[nH]1 and reply at your convenience. highest

* * *

# assayed_target: Transient receptor potential cation channel subfamily V member 1 (Rattus norvegicus, UniProt O35433)
# Sequence (O35433 whole entry): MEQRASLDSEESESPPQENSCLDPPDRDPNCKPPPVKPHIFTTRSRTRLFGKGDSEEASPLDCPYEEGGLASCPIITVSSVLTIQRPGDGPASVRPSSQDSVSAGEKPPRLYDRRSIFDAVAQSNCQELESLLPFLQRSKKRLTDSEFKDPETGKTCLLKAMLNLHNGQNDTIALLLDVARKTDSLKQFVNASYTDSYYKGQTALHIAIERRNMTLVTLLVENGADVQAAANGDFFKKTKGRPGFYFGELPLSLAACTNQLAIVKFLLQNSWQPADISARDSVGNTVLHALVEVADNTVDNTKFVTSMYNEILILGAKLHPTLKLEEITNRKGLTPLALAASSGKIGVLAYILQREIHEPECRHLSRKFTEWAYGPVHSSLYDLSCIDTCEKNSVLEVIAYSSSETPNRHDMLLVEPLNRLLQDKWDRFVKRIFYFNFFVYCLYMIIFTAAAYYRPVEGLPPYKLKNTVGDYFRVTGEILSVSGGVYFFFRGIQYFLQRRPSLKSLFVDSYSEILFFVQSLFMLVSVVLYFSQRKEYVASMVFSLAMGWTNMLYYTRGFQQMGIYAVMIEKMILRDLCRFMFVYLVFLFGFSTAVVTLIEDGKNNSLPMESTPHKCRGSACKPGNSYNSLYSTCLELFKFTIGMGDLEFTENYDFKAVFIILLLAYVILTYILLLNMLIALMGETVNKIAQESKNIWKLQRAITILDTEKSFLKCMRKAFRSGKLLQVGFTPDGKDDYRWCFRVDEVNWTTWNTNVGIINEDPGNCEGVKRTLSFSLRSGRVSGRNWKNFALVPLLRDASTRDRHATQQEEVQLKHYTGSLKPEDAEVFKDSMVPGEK
# experiment_summary: Antagonist activity against capsaicin-induced 45calcium ion uptake in CHO cells expressing rat TRPV1
# Assay type: functional, cell-based
readout: IC50 (µM)
Write it as a number; the unit µM goes unstated.

// known answers, use as guide
Fc1ccc(-c2ccc3[nH]c(N4CCN(c5ncccc5C(F)(F)F)CC4)nc3c2)cc1F    1.14
FC(F)(F)c1cccnc1N1CCN(c2nc3ccc(Cl)cc3[nH]2)CC1    1.13
C[C@@H]1CN(c2ncc(CO)cc2Cl)CCN1c1nc2c(NCc3ccccc3)cc(C(F)(F)F)cc2[nH]1    0.007
C[C@@H]1CN(c2ncccc2C(F)(F)F)CCN1c1nc2ccc(C(F)(F)F)cc2[nH]1    0.048

Please look at this compound and report its IC50: FC(F)(F)c1ccc2[nH]c(N3CCN(c4ncncc4Cl)CC3)nc2c1 2.11

Please look at this compound and report its IC50: FC(F)(F)c1ccc2nc(N3CCN(c4ccccc4C(F)(F)F)CC3)[nH]c2c1 2.06

Please look at this compound and report its IC50: FC(F)(F)c1ccc2[nH]c(N3CCN(c4ncccc4C(F)(F)F)CC3)nc2n1 1.09

Please look at this compound and report its IC50: FC(F)(F)c1cc2[nH]c(N3CCN(c4ncccc4C(F)(F)F)CC3)nc2cc1Br 0.166

Please look at this compound and report its IC50: FC(F)(F)c1cc(N2CCCCC2)c2[nH]c(N3CCN(c4ncccc4C(F)(F)F)CC3)nc2c1 0.029

* * *

# assayed_target: Transient receptor potential cation channel subfamily V member 1 (Rattus norvegicus)
# experiment_summary: Antagonist activity against acid-induced 45calcium ion uptake in CHO cells expressing rat TRPV1 at pH5
# Assay type: functional, cell-based
pIC50: −log10 of the molar value.
pIC50 of 7 or higher: condition met. Under 7: condition not met.

Consider the worked cases shown below.
C[C@H]1CN(c2nc3c(-c4cc(F)c(F)c(F)c4)cc(C(F)(F)F)cc3[nH]2)CCN1c1ncccc1Br    condition not met
COC(=O)c1ccc2nc(N3CCN(c4ncccc4C(F)(F)F)CC3)[nH]c2c1    condition not met
FC(F)(F)c1cc(-c2cc3ccccc3s2)c2nc(N3CCN(c4ncccc4C(F)(F)F)CC3)[nH]c2c1    condition met

As a next step, examine the compound that follows.
Is pIC50 at least 7? Consider FC(F)(F)c1ccc2[nH]c(N3CCN(c4ccncc4C(F)(F)F)CC3)nc2c1 condition not met

* * *

# experiment_summary: Volume of distribution in Sprague-Dawley rat at 1 mg/kg, iv
# Format: ADME, organism-based
# Parameters: dose 1 mg/kg, route intravenous
# cond: in vivo, read-out: Vdss
readout: Vd (L/kg)
Write it as a number; the unit L/kg goes unstated.

Please look at this compound and report its Vd: C[C@@H]1CN(c2ncc(C(O)CO)cc2Cl)CCN1c1nc2c(-c3cc(F)c(F)c(F)c3)cc(C(F)(F)F)cc2[nH]1 (mixture of isomers) 1.89

* * *

# experiment_summary: Cmax in Sprague-Dawley rat at 5 mg/kg, po
# Type: ADME, organism-based
# Set-up: dose 5 mg/kg, route oral
# cond: in vivo
readout: Cmax (ng/mL)
Write it as a number; the unit ng/mL goes unstated.

Please look at this compound and report its Cmax: C[C@@H]1CN(c2ncc(C(O)CO)cc2Cl)CCN1c1nc2c(-c3cc(F)c(F)c(F)c3)cc(C(F)(F)F)cc2[nH]1 (mixture of isomers) 617

* * *

# assayed_target: Transient receptor potential cation channel subfamily V member 1 (Rattus norvegicus, UniProt O35433)
# experiment_summary: Antagonist activity against capsaicin-induced 45calcium ion uptake in CHO cells expressing rat TRPV1
# Type: functional, cell-based
log10 IC50 values for the compounds below.
Transform log10 | Measure IC50 | Unit nM

// known answers, use as guide
FC(F)(F)c1ccc2nc(N3CCN(c4c(Cl)cncc4Cl)CC3)[nH]c2c1    3.14
FC(F)(F)c1ccc(CNc2cc3[nH]c(N4CCN(c5ncccc5C(F)(F)F)CC4)nc3cc2C(F)(F)F)cc1    1.97
C[C@H]1CN(c2ncccc2Br)CCN1c1nc2c(-c3cc(F)c(F)c(F)c3)cc(C(F)(F)F)cc2[nH]1    2.02
C[C@@H]1CN(c2ncc(C(=O)O)cc2Cl)CCN1c1nc2c(-c3cc(F)c(F)c(F)c3)cc(C(F)(F)F)cc2[nH]1    1.66

Please look at this compound and report its log10 IC50: Fc1ccc(Cc2cc(C(F)(F)F)cc3[nH]c(N4CCN(c5ncccc5C(F)(F)F)CC4)nc23)cc1F 1.85

Please look at this compound and report its log10 IC50: FC(F)(F)c1ccc(-c2cc(C(F)(F)F)cc3[nH]c(N4CCN(c5ncccc5C(F)(F)F)CC4)nc23)cc1 1.71

Please look at this compound and report its log10 IC50: FC(F)(F)Oc1cccc(-c2cc(C(F)(F)F)cc3[nH]c(N4CCN(c5ncccc5C(F)(F)F)CC4)nc23)c1 1.41

Please look at this compound and report its log10 IC50: FC(F)(F)c1cc(C2CCC(C(F)(F)F)CC2)c2nc(N3CCN(c4ncccc4C(F)(F)F)CC3)[nH]c2c1 (configuration not stated) 1.00

Please look at this compound and report its log10 IC50: FC(F)(F)c1cc(N2CCOCC2)c2[nH]c(N3CCN(c4ncccc4C(F)(F)F)CC3)nc2c1 1.70

Please look at this compound and report its log10 IC50: FC(F)(F)c1cc(-c2ccncc2)c2[nH]c(N3CCN(c4ncccc4C(F)(F)F)CC3)nc2c1 2.43

Please look at this compound and report its log10 IC50: FC(F)(F)c1ccc(N2CCN(c3nc4cc(C(F)(F)F)ccc4[nH]3)CC2)nc1 4.05

Please look at this compound and report its log10 IC50: C[C@H]1CN(c2nc3c(-c4cc(F)c(F)c(F)c4)cc(C(F)(F)F)cc3[nH]2)CCN1c1ncccc1Br 2.88

Please look at this compound and report its log10 IC50: Fc1cc(CNc2cc(C(F)(F)F)cc3[nH]c(N4CCN(c5ncccc5C(F)(F)F)CC4)nc23)cc(F)c1F 2.12

* * *

pIC50 values for the compounds below.
# assayed_target: Transient receptor potential cation channel subfamily V member 1 (Rattus norvegicus, UniProt O35433)
# experiment_summary: Antagonist activity against acid-induced 45calcium ion uptake in CHO cells expressing rat TRPV1 at pH5
# Type: functional, cell-based
// scale note: pIC50 = -log10(conc_M); give the bare number

FC(F)(F)c1cc(-c2cnccn2)c2nc(N3CCN(c4ncccc4C(F)(F)F)CC3)[nH]c2c1    7.29
C[C@@H]1CN(c2ncc(NC(=O)CO)cc2Cl)CCN1c1nc2c(-c3ccc(F)cc3)cc(C(F)(F)F)cc2[nH]1    8.04
Fc1ccc(Cc2cc(C(F)(F)F)cc3[nH]c(N4CCN(c5ncccc5C(F)(F)F)CC4)nc23)cc1F    7.28
CC(C)(C)c1ccc2[nH]c(N3CCN(c4ncccc4C(F)(F)F)CC3)nc2c1    6.55
FC(F)(F)c1cc(-c2ccncc2)c2[nH]c(N3CCN(c4ncccc4C(F)(F)F)CC3)nc2c1    6.73

Please look at this compound and report its pIC50: FC(F)(F)c1cnc2nc(N3CCN(c4ncccc4C(F)(F)F)CC3)[nH]c2c1 6.05

Please look at this compound and report its pIC50: Fc1cc(-c2cc(C(F)(F)F)cc3[nH]c(N4CCN(c5ncccc5C(F)(F)F)CC4)nc23)cc(F)c1F 7.59

Please look at this compound and report its pIC50: N#Cc1cccnc1N1CCN(c2nc3cc(C(F)(F)F)ccc3[nH]2)CC1 5.15

Please look at this compound and report its pIC50: O=[N+]([O-])c1cc(C(F)(F)F)cc2[nH]c(N3CCN(c4ncccc4C(F)(F)F)CC3)nc12 6.06

Please look at this compound and report its pIC50: FC(F)(F)c1ccnc(N2CCN(c3nc4cc(C(F)(F)F)ccc4[nH]3)CC2)c1 4.92

Please look at this compound and report its pIC50: FC(F)(F)c1ccc2[nH]c(N3CCN(c4ncccc4I)CC3)nc2c1 6.51

Please look at this compound and report its pIC50: FC(F)(F)c1ccc2nc(N3CCN(c4ccccc4C(F)(F)F)CC3)[nH]c2c1 6.39

Please look at this compound and report its pIC50: FC(F)(F)c1ccc(-c2cc3[nH]c(N4CCN(c5ncccc5C(F)(F)F)CC4)nc3cc2C(F)(F)F)cc1 6.70

Please look at this compound and report its pIC50: FC(F)(F)c1cccnc1N1CCN(c2nc3ccc(Cl)cc3[nH]2)CC1 4.76

Please look at this compound and report its pIC50: C[C@H](O)c1cnc(N2CCN(c3nc4c(-c5cc(F)c(F)c(F)c5)cc(C(F)(F)F)cc4[nH]3)[C@H](C)C2)c(Cl)c1 8.52

Please look at this compound and report its pIC50: FC(F)(F)c1ccc2nc(N3CCN(c4ncccc4C(F)(F)F)CC3)[nH]c2c1 6.52

Please look at this compound and report its pIC50: FC(F)(F)c1cc(C(F)(F)F)c2[nH]c(N3CCN(c4ncccc4C(F)(F)F)CC3)nc2c1 6.92

Please look at this compound and report its pIC50: CC(C)(C)c1ccc2nc(N3CCN(c4ncccc4Cl)CC3)[nH]c2c1 6.51
